- test target: M4 muscarinic receptor (Homo sapiens)
- Construct: expressed in transfected cells; host or cells: CHO (M4-CHO)
- assay notes: Functional mobilization of intracellular calcium (FLIPR) in M4-CHO cells
- Format: cell-based
- experimental context: Table 4; 100% efficacy is the maximum response obtained with the Carbachol control
Each item that follows carries a reported Emax.

compound	Emax
CCC=CCOC(=O)N1C2CCC1CC(N1CCC3(CC1)CN(C(C)=O)c1ccccc13)C2 (stereo not shown) [compound 618]	25 to 100%
CC(=O)N[C@H]1CCC2(CCN(C3CCCCCC3)CC2)c2ccccc21 [compound 881]	25 to 100%
CC(=O)N[C@H]1CCC2(CCN(CC3CCC3)CC2)c2ccccc21 [compound 636]	25 to 100%
CCOC(=O)N1CCC(N2CCC3(CC2)CN(C2CCC(=O)CC2)c2ccc(F)cc23)CC1 [compound 951]	25 to 100%
CC(=O)N1CC2(CCN(C3CCN(c4cncc(-c5ccccc5F)n4)CC3)CC2)c2ccccc21 [compound 461]	< 25%
CN(C)C(=O)N1CC2(CCN(C[C@H]3CCN(C(=O)OCC4CC4)C3)CC2)c2cc(F)ccc21 [compound 651]	25 to 100%
O=C(N[C@H]1CC2(CCN(CCC3CC4CC[C@@H]3C4)CC2)c2ccccc21)N1CCCC1 (stereo partly shown) [compound 726]	< 25%
CN(C)C(=O)N1CC2(CCN(C[C@@H]3CCN(c4cnccn4)C3)CC2)c2cc(F)ccc21 [compound 608]	25 to 100%
COCCOC(=O)N1CCC(N2CCC3(CC2)CN(C(C)=O)c2ccc(F)cc23)C1 (stereo not shown) [compound 1012]	< 25%
COc1ccc(F)cc1N1CCC(N2CCC3(CC2)CN(C(=O)N(C)C)c2ccc(F)cc23)CC1 [compound 814]	25 to 100%

Provide the documented Emax with M4 muscarinic receptor (Homo sapiens) as the system for CCOC(=O)N1CCC(N2CCC3(CC2)CN(C(=O)NC(C)C)c2ccccc23)CC1 [compound 494]
25 to 100%

Similarly, CN(C)C(=O)N1CC2(CCN(C3CCN(C(=O)COc4ccccc4)CC3)CC2)c2cc(F)ccc21 [compound 588] ?
< 25%

What do we get for CC1=C(CCN2CCC3(CC2)C[C@H](NC(=O)c2ccoc2)c2ccccc23)C(C)(C)CCC1 [compound 817] ?
< 25%

Can you check CCOC(=O)N1CCC(N2CCC3(CC2)CN(C2CCC4(CC2)OCCO4)c2ccc(F)cc23)CC1 [compound 689] next?
25 to 100%

Item: CC(C)C(=O)N1CCC(N2CCC3(CC2)CN(C(=O)N(C)C)c2ccc(F)cc23)CC1 [compound 665]
< 25%

Follow-up entry: c1ccc2c(c1)CCCC21CCN(C2C[C@@H]3CC[C@H]2C3)CC1 (stereo partly shown) [compound 642]
> 100%

###

- test target: M4 muscarinic receptor (Homo sapiens)
- Construct: expressed in transfected cells; host or cells: CHO (M4-CHO)
- assay notes: Functional mobilization of intracellular calcium (FLIPR) in M4-CHO cells
- Format: cell-based
- experimental context: M4 receptor, calcium mobilization; read-out: M4 Efficacy
Emax overview

molecule	measured property	meas value
COCCOC(=O)N1C2CCC1CC(N1CCC3(CC1)CN(C(=O)OC)c1ccc(F)cc13)C2 (stereo not shown)	Emax	> 85%
Fc1ccc2c(c1)C1(CCN(C[C@H]3C[C@H]4CC[C@H]3C4)CC1)CO2	Emax	< 65%
CC(=O)N[C@@H]1CC2(CCN([C@@H]3C[C@H]4CC[C@@H]3C4)CC2)c2ccccc21	Emax	65 to 85%

Let us examine a further case.
Param item = `CCOC(=O)N1CCC(N2CCC3(CC2)CN(C(C)=O)c2ccc(OC)cc23)CC1` ; retrieve measured Emax.
< 65%

###

- test target: M4 muscarinic receptor (Homo sapiens, UniProt P08173)
- Construct: expressed in transfected cells; host or cells: CHO (M4-CHO)
- Sequence (P08173 whole entry): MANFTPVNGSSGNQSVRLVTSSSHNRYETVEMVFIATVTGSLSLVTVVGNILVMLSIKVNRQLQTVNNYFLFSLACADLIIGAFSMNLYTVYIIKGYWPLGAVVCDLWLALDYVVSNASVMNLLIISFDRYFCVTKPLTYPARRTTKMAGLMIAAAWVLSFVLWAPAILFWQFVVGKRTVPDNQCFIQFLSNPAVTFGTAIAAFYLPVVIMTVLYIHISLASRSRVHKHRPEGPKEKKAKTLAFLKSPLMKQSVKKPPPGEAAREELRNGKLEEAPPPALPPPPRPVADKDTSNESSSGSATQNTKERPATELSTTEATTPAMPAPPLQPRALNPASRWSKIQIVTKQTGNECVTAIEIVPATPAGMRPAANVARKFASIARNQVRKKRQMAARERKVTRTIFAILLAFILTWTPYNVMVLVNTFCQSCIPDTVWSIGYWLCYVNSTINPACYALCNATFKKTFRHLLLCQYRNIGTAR
- assay notes: Functional mobilization of intracellular calcium (FLIPR) in M4-CHO cells
- Assay type: cell-based
- experimental context: Table 4; 100% efficacy is the maximum response obtained with the Carbachol control
measured property: Emax

Sample answers from the record:
compound	Emax
CCCOC(=O)N1CCC(N2CCC3(CC2)CN(CCOC)c2ccc(F)cc23)CC1	25 to 100%
CCOC(=O)N1CCC(N2CCC3(CC2)CN(c2ccc(OC)nn2)c2ccc(F)cc23)CC1	25 to 100%

What reported Emax corresponds to `CCOC(=O)N1CCC(N2CCC3(CC2)CN(C(=O)N2CCCCC2)c2ccccc23)CC1` on M4 muscarinic receptor (Homo sapiens, UniProt P08173)?
25 to 100%

Another compound to look at: `CC#CCOC(=O)N1CC[C@H](CN2CCC3(CC2)CN(C(=O)N(C)C)c2ccc(F)cc23)C1`
25 to 100%

Next compound: CCCOC(=O)N1CCCC(N2CCC3(CC2)CN(C(=O)N(C)C)c2ccc(F)cc23)CC1 (centres unmarked)
25 to 100%

Now give it for `COc1ccccc1N1CCC(N2CCC3(CC2)CN(C(=O)N(C)C)c2ccc(F)cc23)CC1` too.
25 to 100%

Continue with `O=C1CC2(CCN(C3CCCCC3)CC2)c2cc(Cl)ccc21`
25 to 100%

`CN(C)C(=O)CN1CC2(CCN(C[C@H]3C[C@H]4C=CC3C4)CC2)c2cc(F)ccc21` , same question.
25 to 100%

###

- test target: M1 muscarinic receptor (Homo sapiens, UniProt P11229)
- Construct: expressed in transfected cells; host or cells: CHO (M1-CHO)
- Sequence (P11229 1-460): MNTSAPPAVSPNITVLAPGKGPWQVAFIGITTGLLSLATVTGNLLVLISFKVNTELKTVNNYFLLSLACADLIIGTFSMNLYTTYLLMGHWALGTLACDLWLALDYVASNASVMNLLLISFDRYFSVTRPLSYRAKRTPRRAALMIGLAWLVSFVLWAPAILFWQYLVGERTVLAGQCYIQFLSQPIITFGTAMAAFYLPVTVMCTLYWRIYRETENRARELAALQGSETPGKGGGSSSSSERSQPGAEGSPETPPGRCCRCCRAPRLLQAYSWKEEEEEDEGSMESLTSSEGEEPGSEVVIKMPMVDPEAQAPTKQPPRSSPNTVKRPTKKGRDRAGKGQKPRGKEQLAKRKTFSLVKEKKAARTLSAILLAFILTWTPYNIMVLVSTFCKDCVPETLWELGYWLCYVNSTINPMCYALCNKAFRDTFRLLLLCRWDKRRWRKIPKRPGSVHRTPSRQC
- assay notes: Functional mobilization of intracellular calcium (FLIPR) in M1-CHO cells
- Assay type: cell-based
- experimental context: Table 4; 100% efficacy is the maximum response obtained with the Carbachol control
- Protocol: Functional Mobilization of Intracellular Calcium to Determine Muscarinic Receptor Activity: […] Compounds are prepared at a 2× fold concentration in a 96-well plate (round bottom, Costar Corning cat# 3656), by reconstituting the pre-spotted compounds in bath 1 containing 1 mM probenecid. […] In both assay modes, the fluorescence is recorded for 60 sec (excitation wavelength is […] and emission wavelength 540 nm) using the FLIPR 3 instrument. […]
measured property: Emax

// known answers, use as guide
compound	Emax
CCOC(=O)N1CCC(N2CCC3(CC2)CN(C(C)=O)c2c(-c4ccsc4)cccc23)CC1	25 to 100%
COCCOC(=O)N1CC[C@@H](CN2CCC3(CC2)CN(C(C)=O)c2ccccc23)C1	25 to 100%
CC(=O)N1CC2(CCN(C3CCN(c4cncc(CC(C)C)n4)CC3)CC2)c2ccccc21	< 25%
CN(C)C(=O)N1CC2(CCN(C3CCN(C(=O)c4ccon4)CC3)CC2)c2cc(F)ccc21	25 to 100%
CN(C)C(=O)N1CC2(CCN(C3CCN(C(=O)[C@H]4CCCO4)CC3)CC2)c2cc(F)ccc21	25 to 100%
CCOC(=O)N1CCC(N2CCC3(C[C@H](NC(C)=O)c4cc(F)ccc43)C2)CC1 (stereo partly shown)	25 to 100%

Request the reported Emax associated with O=C(N[C@H]1CC2(CCN(CCC3CC4CC[C@@H]3C4)CC2)c2ccccc21)c1ccoc1 (stereo partly shown)
< 25%

###

- test target: M1 muscarinic receptor (Homo sapiens, UniProt P11229)
- Construct: expressed in transfected cells; host or cells: CHO (M1-CHO)
- Sequence (P11229 1-460): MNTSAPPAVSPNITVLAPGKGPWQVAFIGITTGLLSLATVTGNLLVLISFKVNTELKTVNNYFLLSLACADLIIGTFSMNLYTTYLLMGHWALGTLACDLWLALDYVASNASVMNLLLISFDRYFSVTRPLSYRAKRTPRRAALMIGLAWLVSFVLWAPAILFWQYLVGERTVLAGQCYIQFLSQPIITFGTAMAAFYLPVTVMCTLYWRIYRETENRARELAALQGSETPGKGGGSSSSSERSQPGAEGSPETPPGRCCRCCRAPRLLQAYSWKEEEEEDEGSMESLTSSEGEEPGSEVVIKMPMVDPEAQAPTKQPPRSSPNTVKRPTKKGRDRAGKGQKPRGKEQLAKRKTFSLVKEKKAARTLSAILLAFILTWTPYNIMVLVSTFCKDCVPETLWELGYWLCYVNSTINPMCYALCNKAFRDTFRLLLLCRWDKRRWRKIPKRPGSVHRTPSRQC
- assay notes: Functional mobilization of intracellular calcium (FLIPR) in M1-CHO cells
- Assay type: cell-based
- experimental context: M1-CHO cells, calcium mobilization (FLIPR); read-out: M1 Efficacy
Catalogue of Emax readings, one per entry.

compound	measured property	meas value
CCOC(=O)N1C2CCC1CC(N1CCC3(CC1)CN(C(=O)C(C)C)c1ccc(F)cc13)C2 (stereo not shown)	Emax	65 to 85%
CC(=O)N1CC2(CCN(CC3CCCCC3)CC2)c2cc(F)ccc21	Emax	65 to 85%
C/C=C\c1ccc2c(c1)C1(CCN(C3CCN(C(=O)OCC)CC3)CC1)CN2C(C)=O	Emax	< 65%

Kindly consider the entry below.
Need Emax of `CCOC(=O)N1CCC(N2CCC3(CC2)CN(C(C)=O)c2ccc(-c4ccc(C(N)=O)cc4)cc23)CC1` , thanks.
< 65%

Source listed as patent US7786141B2.
